Tested on: Rattus norvegicus
Assay: In vivo AII-like activity, expressed as percent activity relative to AII (angiotensin II), measured in rat blood pressure assay
Format: functional
Residues, ends and D or L forms follow the SMILES beside them.
Measured Biological activity by item
Quick reminder: number only, in %, skip the unit.

compound=CC[C@H](C)[C@H](NC(=O)[C@H](Cc1ccc(O)cc1)NC(=O)[C@@H](NC(=O)[C@H](CCCN=C(N)N)NC(=O)CNC)C(C)C)C(=O)N[C@H](Cc1c[nH]cn1)C(=O)N1CCC[C@H]1C(=O)N[C@H](Cc1ccccc1)C(=O)O target_or_system="Rattus norvegicus" endpoint_result=0
compound="CC(C)[C@H](NC(=O)[C@H](CCCN=C(N)N)NC(=O)[C@@H](N)CC(N)=O)C(=O)N[C@@H](Cc1ccc(O)cc1)C(=O)N[C@H](C(=O)N[C@@H](Cc1c[nH]cn1)C(=O)N1CCC[C@H]1C(=O)N[C@@H](Cc1ccccc1)C(N)=O)C(C)C (H-NRVYVHPF-NH2)" target_or_system="Rattus norvegicus" endpoint_result=3
compound="CC[C@H](C)[C@H](NC(=O)[C@H](Cc1ccc(O)cc1)NC(=O)[C@@H](NC(=O)[C@H](CCCN=C(N)N)NC(=O)[C@@H](N)CC(=O)O)C(C)C)C(=O)N[C@@H](Cc1c[nH]cn1)C(=O)N1CCC[C@H]1C(=O)N[C@H](C(=O)O)C(C)C (H-DRVYIHPV-OH)" target_or_system="Rattus norvegicus" endpoint_result=0.5
compound=CC[C@H](C)[C@H](NC(=O)[C@H](Cc1ccc(O)cc1)NC(=O)[C@@H](NC(=O)[C@H](CCCN=C(N)N)NC(=O)[C@@H](N)CC(=O)O)C(C)C)C(=O)N[C@@H](Cc1c[nH]cn1)C(=O)N1CCC[C@H]1C(=O)N[C@@H](Cc1ccc(Br)cc1)C(=O)O target_or_system="Rattus norvegicus" endpoint_result=50
compound=CC(C)[C@H](NC(=O)[C@H](CCCNC(=N)N)NC(=O)[C@@H](N)CC(N)=O)C(=O)N[C@@H](Cc1ccc(O)cc1)C(=O)N1CCC[C@@H]1C(=O)N[C@@H](Cc1c[nH]cn1)C(=O)N1CCC[C@H]1C(=O)N[C@@H](Cc1ccccc1)C(=O)O target_or_system="Rattus norvegicus" endpoint_result=0.05

Given CC[C@H](C)[C@H](NC(=O)[C@@H]1CCCN1C(=O)[C@H](Cc1c[nH]cn1)NC(=O)[C@H](NC(=O)[C@H](Cc1ccc(O)cc1)NC(=O)[C@H](NC(=O)[C@H](CCCN=C(N)N)NC(=O)CNC)C(C)C)C(C)C)C(=O)O , respond with its Biological activity.
0

Return Biological activity for the following compound: CC[C@H](C)[C@H](NC(=O)[C@H](Cc1ccc(O)cc1)NC(=O)[C@@H](NC(=O)[C@H](CCCN=C(N)N)NC(=O)[C@@H](N)CC(=O)O)C(C)C)C(=O)N[C@@H](Cc1c[nH]cn1)C(=O)N1CCC[C@H]1C(=O)N[C@@H](Cc1c[nH]c2ccccc12)C(=O)O (H-DRVYIHPW-OH)
22.2

Return Biological activity for the following compound: CC[C@H](C)[C@H](NC(=O)[C@H](Cc1ccc(O)cc1)NC(=O)[C@@H](NC(=O)[C@@H](CCCN=C(N)N)NC(=O)[C@@H](N)CC(=O)O)C(C)C)C(=O)NC(Cc1c[nH]cn1)C(=O)N1CCC[C@@H]1C(=O)N[C@@H](C(=O)O)[C@@H](C)CC (stereo in doubt)
0.014

* * *

# key: entry, value: Biological activity
Biological target: Angiotensin II receptor (Homo sapiens) (UniProt P30556+P50052)
Assay: In vitro angiotensin II-like activity, expressed as percent relative to angiotensin II, measured in the rabbit aorta strip assay
Type: functional, tissue-based
Settings: Oryctolagus cuniculus
The response must be a number in % with no trailing unit.

compound=CC[C@H](C)[C@H](NC(=O)[C@@H]1CCCN1C(=O)[C@H](Cc1c[nH]cn1)NC(=O)[C@H](NC(=O)[C@@H](Cc1ccc(O)cc1)NC(=O)[C@@H](NC(=O)[C@H](CCCN=C(N)N)NC(=O)CNC)C(C)C)C(C)C)C(=O)O endpoint_result=-0
compound=CC[C@H](C)[C@H](NC(=O)[C@H](Cc1ccc(O)cc1)NC(=O)[C@@H](NC(=O)[C@@H](CCCNC(=N)N)NC(=O)CNC)C(C)C)C(=O)N[C@@H](Cc1c[nH]cn1)C(=O)N1CCC[C@@H]1C(=O)N[C@H](Cc1ccc(Cl)cc1)C(=O)O endpoint_result=-0
compound=CC[C@H](C)[C@H](NC(=O)[C@H](Cc1ccc(O)cc1)NC(=O)[C@@H](NC(=O)[C@H](CCCN=C(N)N)NC(=O)CNC)C(C)C)C(=O)N[C@@H](Cc1c[nH]cn1)C(=O)N1CCC[C@H]1C(=O)N[C@@H](C)C(=O)O endpoint_result=-0

Moving on to another compound below.
Entry CC[C@H](C)[C@H](NC(=O)[C@H](Cc1ccc(O)cc1)NC(=O)[C@@H](NC(=O)[C@@H](CCCN=C(N)N)NC(=O)[C@@H](N)CC(=O)O)C(C)C)C(=O)NC(Cc1c[nH]cn1)C(=O)N1CCC[C@@H]1C(=O)N[C@@H](C(=O)O)[C@@H](C)CC (stereo in doubt) needs its Biological activity filled in; supply it.
-0

* * *

Tested on: Rattus norvegicus
Assay: In vivo AII-like activity, expressed as percent activity relative to AII (angiotensin II), measured in rat blood pressure assay
Assay type: functional
Residues, ends and D or L forms follow the SMILES beside them.
Biological activity values by entry
Unit % implied. Number only.

These solved cases illustrate the format of a correct answer.
molecule=CC(C)[C@H](NC(=O)[C@H](CCCN=C(N)N)NC(=O)[C@@H](N)CC(N)=O)C(=O)N[C@H](Cc1ccc(O)cc1)C(=O)N[C@H](C(=O)N[C@@H](Cc1c[nH]cn1)C(=O)N1CCC[C@H]1C(=O)N[C@@H](Cc1ccccc1)C(=O)O)C(C)C quantity_unit=% endpoint_result=0.03
molecule="COC(=O)[C@H](Cc1ccccc1)NC(=O)[C@@H]1CCCN1C(=O)[C@H](Cc1c[nH]cn1)NC(=O)[C@@H](NC(=O)[C@H](Cc1ccc(O)cc1)NC(=O)[C@@H](NC(=O)[C@H](CCCN=C(N)N)NC(=O)[C@@H](N)CC(N)=O)C(C)C)C(C)C (H-NRVYVHPF-OMe)" quantity_unit=% endpoint_result=10

Consider the additional molecule presented here.
// fetch Biological activity; item: CC[C@H](C)[C@H](NC(=O)[C@H](Cc1ccc(O)cc1)NC(=O)[C@@H](NC(=O)[C@H](CCCNC(=N)N)NC(=O)[C@@H](N)CC(=O)O)C(C)C)C(=O)N[C@@H](Cc1c[nH]cn1)C(=O)N1CCC[C@H]1C(=O)N[C@@H](C(=O)O)[C@@H](C)CC ; system: Rattus norvegicus
0.72

* * *

Below, each entry is listed alongside its reported Biological activity.
Tested on: Rattus norvegicus
Assay: In vivo AII-like activity, expressed as percent activity relative to AII (angiotensin II), measured in rat blood pressure assay
Type: functional
Residues, ends and D or L forms follow the SMILES beside them.
Kindly provide the numeric value in % only, without the unit symbol.

compound=CC[C@H](C)[C@H](NC(=O)[C@H](Cc1ccc(O)cc1)NC(=O)[C@@H](NC(=O)[C@H](CCCN=C(N)N)NC(=O)[C@@H](N)CC(=O)O)C(C)C)C(=O)N[C@@H](Cc1c[nH]cn1)C(=O)N1CCC[C@H]1C(=O)N[C@@H](Cc1ccc(N)cc1)C(=O)O endpoint_result=53
compound=CC[C@H](C)[C@H](NC(=O)[C@H](Cc1ccc(O)cc1)NC(=O)[C@@H](NC(=O)[C@H](CCCN=C(N)N)NC(=O)[C@@H](N)CC(=O)O)C(C)C)C(=O)N[C@@H](Cc1c[nH]cn1)C(=O)N1CCC[C@H]1C(=O)N[C@@](C)(Cc1ccccc1)C(=O)O endpoint_result=80

Answer with reported Biological activity of CC(C)[C@H](NC(=O)[C@H](CCCN=C(N)N)NC(=O)[C@@H](N)CC(N)=O)C(=O)N[C@@H](Cc1ccc(O)cc1)C(=O)N1CCC[C@H]1C(=O)N[C@@H](Cc1c[nH]cn1)C(=O)N1CCC[C@H]1C(=O)N[C@@H](Cc1ccccc1)C(=O)O
10

Please supply the value of reported Biological activity for the item CC[C@H](C)[C@H](NC(=O)[C@H](Cc1ccc(O)cc1)NC(=O)[C@@H](NC(=O)[C@H](CCCN=C(N)N)NC(=O)[C@@H](N)CC(=O)O)C(C)C)C(=O)N[C@@H](Cc1c[nH]cn1)C(=O)N1CCC[C@H]1C(=O)N[C@@H](Cc1ccc(O)cc1)C(=O)O (H-DRVYIHPY-OH)
83

// data source = ChEMBL document CHEMBL1124265
